test: AGP1-GFP expression modulators, hit retest, confirmation, cell-based, flow cytometry, S. cerevisiae, cherry picks (AID 2273);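 note: median GFP channel fluorescence over the whole cell population gate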; conditions: S. cerevisiae AGP1-GFP strain, 3 h, at 10 µM
QUANTITY: GFP response, % of DMSO (%)
Dear colleague, please return just the value in %, with no unit written.

q: I have this molecule here, COC(=O)c1ccccc1OCC(=O)NC1CCCCC1 , and I need its recorded GFP response, % of DMSO.
a: 91.7

q: Same read-out for Fc1ccc(C2Nc3cccc4cccc(c34)N2)cc1 ?
a: 95.4

q: Next molecule: O=S(=O)(c1ccccc1)N1N=C(c2ccccc2)CC1c1ccccc1 (stereo not drawn)
a: 99.4

q: And for O=C1CC(Sc2nnc(-c3ccccc3O)o2)C(=O)N1c1ccccc1 (stereo not drawn) ?
a: 104

q: Repeat with Oc1cccc(/C=N/c2c(-c3ccco3)nc3ccccn23)c1
a: 97.1

q: Entry CCOc1ccc(C(=O)/C=C/c2ccc(SC)cc2)cc1 please
a: 102

q: Follow-up item: Cc1cc(C)nc(S/C=C/C(=O)c2ccccc2)n1
a: 107

q: One more molecule: O=C(Nc1nc(-c2ccccn2)cs1)c1cc2ccccc2o1
a: 120

q: What about this molecule? CC(C)C(=O)NC(c1cccs1)c1cc([N+](=O)[O-])c2cccnc2c1O (stereo not drawn)
a: 101

q: Also check COc1cc(/C=C2\C(=O)ON=C2c2ccc(Cl)cc2)ccc1O
a: 100

q: Try the molecule CC(=O)c1ccc(Sc2ccccn2)c([N+](=O)[O-])c1
a: 93.1

q: // same read-out, input: COCc1nnc(NC(=O)c2ccc(S(=O)(=O)N(C)c3ccccc3)cc2)o1
a: 92.5

q: What do you have for CS(=O)(=O)N1N=C(c2ccco2)CC1c1ccccc1 (stereo not drawn) ?
a: 105

q: Please answer likewise for N#C/C(=C\c1c(N2CCCCC2)nc2ccccn2c1=O)C(=O)NCc1ccco1
a: 99.7

q: Would you kindly repeat that for CN(C)c1ccc(N=Cc2nc(-c3ccccc3)oc2OC(=O)c2cccc(Br)c2)cc1 ?
a: 98.1

q: # iterate: C/C(=N\NC(=O)c1nonc1N)c1cccs1
a: 94.5

q: What would you report for CCCc1nnc(N2C(=O)c3cccc4cccc(c34)C2=O)s1 ?
a: 108

q: // repeat for COc1ccc(/C=C/C(=O)c2c(O)cc(C)oc2=O)c(OC)c1 and report
a: 100

q: Same read-out for CCCCOc1ccc(C(=O)N2CCN(c3ccc(N4CCOCC4)nn3)CC2)cc1 ?
a: 97.2

q: Input CCc1ccc2c(c1)C1(NN=C(c3ccccc3)S1)C(=O)N2 (stereo not drawn)
a: 102

q: Follow-up item: COc1ccccc1OCC(=O)Sc1ccc(C)cc1
a: 99.3

q: Now consider Cc1cc(C)c(S(C)(=O)=O)c(S(=O)(=O)c2ccc(Cl)cc2)n1 .
a: 100

q: Similarly, COC(=O)Cn1c(C)c(/C=C/c2cc[n+](C)cc2)c2ccccc21 ?
a: 99.7

* * *

What inhibition was measured for each of the following?
biological target: AP-2 complex subunit beta (Homo sapiens); assay: inhibitors of arrestin peptide binding to AP2, pilot screen, biochemical, validation set, GST-AP2 beads, flow cytometry (AID 504541); conditions: FITC arrestin peptide, at 10 µM, stronger effect = higher value, AP2 beta2 appendage fragment, R879A mutant;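 note: AP2 carries R879A mutation and is captured from E. coli lysate; bead-bound FITC arrestin peptide fluorescence measuring arrestin peptide binding to AP2; 0% = DMSO wells and 100% = excess unlabeled arrestin peptide control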
Quick reminder: number only, in %, skip the unit.

q: May I ask what inhibition has been recorded for Cc1ccc(C(=O)NC(=S)NCCCN2CCOCC2)cc1 ?
a: 4.05

q: COc1cc(C(=O)OCCCN(C)C)cc(OC)c1OC , same question.
a: 4.79

q: Further, for CC(C)Cc1ccc(C(C)C(=O)Nc2ccc(O)cc2)cc1 (stereo not drawn) ?
a: 33.6

q: Try the compound Fc1cc(F)cc(NC(=S)NCCCN2CCOCC2)c1
a: -3.24

q: Also, Nc1ccc2[nH]ncc2c1 please.
a: 11.5

q: Same lookup for CCN(CC)C1=C(Cl)C(=O)C(Cl)C12OCCO2 (stereo not drawn) , please.
a: 49.7

q: Now give it for OC(CCN1CCCCC1)(c1ccccc1)C1CCCCC1 (stereo not drawn) too.
a: -9.7

q: Also check CC1COc2c(N3CCN(C)CC3)c(F)cc3c(=O)c(C(=O)O)cn1c23 (stereo not drawn)
a: 2.93

q: Next entry: CCCCC[C@H](O)/C=C/[C@@H]1[C@@H](C/C=C\CCCC(=O)OC)[C@@H](O)C[C@H]1O
a: -11.2

q: Another compound to look at: CCOc1cccc(N2C(=O)CC(N(CCc3ccc(OC)c(OC)c3)C(=O)CC)C2=O)c1 (stereo not drawn)
a: 27.3

q: Param item: COc1cc2c(cc1OC)C(c1cc3ccccc3oc1=O)=NC(C)(C)C2
a: -0.33

q: COc1ccc(NC(=S)NCCc2c[nH]c3ccccc23)cc1 ?
a: -10.2

q: What would you report for CC1(C)C2CCC1(C(=O)O)c1nc3ccccc3nc12 (stereo not drawn) ?
a: 6.26

q: Likewise for OC(CCCN1CCCCC1)(c1ccccc1)c1ccccc1 ?
a: -8.31

q: Input CCCCC[C@H](O)/C=C/[C@@H]1[C@@H](CCCCCCC(=O)O)[C@@H](O)C[C@H]1O
a: -0.39

q: Try CN1CCC(=C2c3ccccc3CC(=O)c3sccc32)CC1 next.
a: -10.2

q: What would you report for CNCCCN1c2ccccc2CCc2ccccc21 ?
a: -10.5

q: Same question for COc1cc2c(cc1OC)C(c1cc(OC)c(OC)c(OC)c1)NCC2 (stereo not drawn) please.
a: -5.98

q: Now the same for CO/N=C(\C(=O)N[C@@H]1C(=O)N2C(C(=O)O)=C(COC(C)=O)CS[C@H]12)c1csc(N)n1 (stereo in doubt)
a: 2.47

q: Continue with COc1ccc2nc(NC(=O)Nc3ccccc3)sc2c1
a: 0.98

q: Param item: O=C(c1ccc(F)cc1)[C@@H]1[C@@H](C(=O)c2ccccc2)[C@@]2(C(=O)Nc3ccccc32)[C@H]2c3ccccc3C=CN12
a: -24.7

q: Next: CC1(C)Cc2ccccc2C(C(Cc2ccccc2)C(N)=O)=N1 (stereo not drawn)
a: -4.92

q: // next record COc1cc(OC)c(C(=O)CCCN2CCCC2)c(OC)c1
a: 1.36

* * *

experiment: modulators of CIT2-GFP expression in yeast, confirmation, S. cerevisiae, GFP fusion, cherry picks, mother/daughter gates (AID 2274); conditions: S. cerevisiae CIT2-GFP strain, flow cytometry, 3 h; measured here: mother cell gate; at 10 µM; stronger effect = higher value
QUANTITY: GFP response, % of DMSO
Number first, unit second.

q: Which measured GFP response, % of DMSO value corresponds to Cc1ccc(C(=O)O/N=C(\N)Cc2cccs2)c(Cl)c1 ?
a: 129%

q: Same read-out for Cc1ccc2c(c1)c1c(c(=O)n(-c3ccccc3C)c(=O)n1CC(=O)NCC1CCCO1)n2C (stereo not given) ?
a: 102%

q: Likewise for CN(O)/C=c1/ccc2c(n1)C(=O)C=CC=2 ?
a: 161%

q: Would you kindly repeat that for N=c1n(CCN2CCCCC2)c2ccccc2n1CC(=O)c1ccc(Cl)c(Cl)c1 ?
a: 78.3%

q: How about CC1=CCC(C(=O)O)C(C(=O)Nc2ccc(-c3nc4ccc(C)cc4s3)cc2)C1 (stereo not given) ?
a: 113%

* * *

molecular target: Beta-2 adrenergic receptor (Homo sapiens); test: beta2AR agonists driving receptor internalization, pilot screen, cell-based, FAP fluorogen, flow cytometry, validation set (AID 504459); details: Am2.2-beta2AR cells, FAP surface receptor flow cytometry; at 10 µM; stronger effect = higher value;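 note: agonist-driven loss of surface beta2AR via internalization measured by FAP dye flow cytometry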
Record form. Attribute: response. Fill in for each entry.
Express it in %; write the number only.

q: // response lookup, key: C#CCN(C)CCCOc1ccc(Cl)cc1Cl
a: -6.11

q: Try this molecule next: Nc1nc2ccc(OC(F)(F)F)cc2s1
a: 9.24

q: O=C1CCCCCN1Cc1ccccc1 , same question.
a: -1.56

q: And the next one, C[C@H](NC(=O)OC(C)(C)C)C(=O)NCC1CCC(C(=O)O)CC1 (stereo partly drawn) ?
a: -13.5

q: Would you mind doing CCOC(=O)c1cnc2ccc(C(=O)OC)cc2c1Nc1ccc2c(c1)OCCO2 as well?
a: -25.7

q: Also COc1ccc(CN(C)CCc2ccccn2)cc1OC , if possible.
a: 6.81

q: Also need CCOC(=O)c1cccc(C(=O)OCC)n1 , thanks.
a: -0.16

q: And the next one, COc1ccc(CCN=C(N)C(C)c2ccccc2)cc1OC (stereo not drawn) ?
a: -11.2

q: # iterate: CCOC(=O)[C@H](CCc1ccccc1)N[C@@H](C)C(=O)N1CCC[C@H]1C(=O)O
a: -2.62

q: Queued: COc1cc2c3c(c1)C1(C(=O)N3C(C)(C)C=C2C)C(C#N)=C(N)Oc2cc(C)oc(=O)c21 (stereo not drawn)
a: -71.3

q: Then what about the molecule Cn1c(=O)c2c(nc(SCCN3CCCCC3)n2C)n(C)c1=O ?
a: -25.4

q: And then COc1cc(Cl)cc2c1Sc1ccccc1/C2=C/CCN(C)C , what is it?
a: 20

q: Would you mind doing O=C(c1cc2cc(Br)ccc2o1)N1CCCCC1 as well?
a: -13.7

q: Entry COc1ccc(-c2c(NC(=O)c3ccco3)n(C)c3ccccc3c2=O)cc1 please
a: 5.47

q: Please do the same for COC(=O)c1cc(C(=O)NCCC(C)C)cc([N+](=O)[O-])c1 as well.
a: 7.63

q: Next molecule up: CC(C)C1Cc2[nH]c(=O)c(C(=O)O)cc2CO1 (stereo not drawn)
a: -2.38

q: Also CCCN1C[C@H](CSC)C[C@@H]2c3cccc4[nH]cc(c34)C[C@H]21 , if possible.
a: -19.4

q: Now consider COc1ccc2c(c1)CC[C@@H]1[C@@H]2CC[C@]2(C)C(=O)CC[C@@H]12 and answer again.
a: -15.3

q: Let us now turn to COc1ccc(CN(CCC(c2ccc(F)cc2)C2CCOC(C)(C)C2)C(=O)c2ccco2)cc1 (stereo not drawn)
a: 22.1

q: Here is the next molecule: COc1cc(C2C(C(=O)c3ccc(C)o3)=C(O)C(=O)N2Cc2cccnc2)ccc1O (stereo not drawn)
a: -8.26

q: Repeat for the following molecule: CCC(=O)c1ccc(O)cc1
a: -7.88

q: Now give it for CCOc1ccccc1C(=O)NCCC(=O)O too.
a: 12.6

q: Repeat with CC1(C)O[C@@H]2C[C@H]3[C@@H]4CCC5=CC(=O)C=C[C@]5(C)[C@@]4(F)[C@@H](O)C[C@]3(C)[C@]2(C(=O)CO)O1
a: 10.2
